Assay Target: PBD-C06 (final humanized, de-immunized antibody with the complement mutation K322A) (human)
Sequence (chain, as listed by the source K322A, chain 1 of 2): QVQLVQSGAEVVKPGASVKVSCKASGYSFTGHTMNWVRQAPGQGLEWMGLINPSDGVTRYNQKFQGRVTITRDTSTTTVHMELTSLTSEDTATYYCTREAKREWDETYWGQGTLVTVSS
Sequence (chain, as listed by the source K322A, chain 2 of 2): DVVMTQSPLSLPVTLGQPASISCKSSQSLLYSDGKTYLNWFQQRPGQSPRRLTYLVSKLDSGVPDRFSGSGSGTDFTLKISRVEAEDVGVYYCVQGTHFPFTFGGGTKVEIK
Method Notes: SPR
Non-standard residues stand in square brackets, D forms with d. No end group written: not given here. pGlu = O=C1CC[C@@H](C(=O)O)N1
Result Type: Kd (nM)
Numbers only here, please. The scale is nM.

Query :: # Kd lookup, item [pGlu]FRHDSGYEVHHQKLV [pE3-Aβ(3–18) monomer]
Result :: 7.86
